Molecular target: human CB1 receptor (Homo sapiens, UniProt P21554)
Construct: host or cells: CHO-K1 (stably transfected cell line, membranes prepared in house)
Sequence (P21554 whole entry): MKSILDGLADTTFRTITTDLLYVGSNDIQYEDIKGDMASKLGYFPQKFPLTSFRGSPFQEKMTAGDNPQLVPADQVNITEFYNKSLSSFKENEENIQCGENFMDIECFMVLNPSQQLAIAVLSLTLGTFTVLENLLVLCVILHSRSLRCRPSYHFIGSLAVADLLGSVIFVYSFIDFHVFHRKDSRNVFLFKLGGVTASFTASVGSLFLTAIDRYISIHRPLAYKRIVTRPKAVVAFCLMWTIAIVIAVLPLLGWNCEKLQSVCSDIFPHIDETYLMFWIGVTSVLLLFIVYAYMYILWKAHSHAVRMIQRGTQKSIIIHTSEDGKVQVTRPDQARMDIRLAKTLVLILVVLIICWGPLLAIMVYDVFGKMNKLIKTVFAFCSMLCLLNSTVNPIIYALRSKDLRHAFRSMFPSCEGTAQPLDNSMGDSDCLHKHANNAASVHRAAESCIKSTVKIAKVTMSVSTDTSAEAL
Experiment: CB1 radioligand competitive binding assay ([3H]CP 55,940 displacement)
For each record, write down the corresponding IC50.

## Task Answer with reported IC50 of `CCCCCCC(C)(C)c1cc(O)c(C/C=C(\C)CCC=C(C)C)c(OCOC(=O)OCC)c1`
## Result 500 to 990 nM

## Task Answer with reported IC50 of `CCCCCc1cc(O)c(C/C=C(\C)CCC=C(C)C)c(OCOCCOC)c1`
## Result 1000 to 4990 nM

* * *

Target: human CB1 receptor (Homo sapiens, UniProt P21554)
Construct: host or cells: CHO-K1 (stably transfected cell line, membranes prepared in house)
Assay: CB1 radioligand competitive binding assay ([3H]CP 55,940 displacement)
Conditions: 0.8 nM [3H]CP 55,940; membranes from CHO-K1 cells expressing human CB1 receptor; dose-response; read-out: CB1 IC50
pIC50: −log10 of the molar value.
result type: pIC50

## Task Answer with reported pIC50 of `CCCCCc1cc(O)c(C/C=C(\C)CCC=C(C)C)c(OCOCC)c1`
## Result < 5.30

## Task Answer with reported pIC50 of `CCCCCCC(C)(C)c1cc(O)c(CC=C(C)CCC=C(C)C)c(OCOC(=O)C(C)(C)C)c1`
## Result 5.30 to 6.00

## Task Answer with reported pIC50 of `CCCCCCC(C)(C)c1cc(OCOC(=O)C(C)(C)C)c(CC=C(C)CCC=C(C)C)c(OCOC(=O)C(C)(C)C)c1`
## Result < 5.30

## Task Answer with reported pIC50 of `CCCc1cc(O)c(C/C=C(\C)CCC=C(C)C)c(OCOC(=O)C(C)(C)C)c1`
## Result 6.00 to 6.30

* * *

Target: human CB1 receptor (Homo sapiens, UniProt P21554)
Construct: host or cells: CHO-K1 (stably transfected cell line, membranes prepared in house)
Assay: CB1 radioligand competitive binding assay ([3H]CP 55,940 displacement)
Settings: 0.8 nM [3H]CP 55,940; membranes from CHO-K1 cells expressing human CB1 receptor; dose-response; read-out: CB1 IC50
pIC50: −log10 of the molar value.
result type: pIC50

## Task Answer with reported pIC50 of `CCCCCc1cc(O)c(CC=C(C)CCC=C(C)C)c(OCOC(=O)OCC)c1`
## Result 5.30 to 6.00

## Task Answer with reported pIC50 of `CCCCCc1cc(O)c(C/C=C(\C)CCC=C(C)C)c(OCN(C(=O)OC)c2ccccc2)c1`
## Result > 6.30

## Task Answer with reported pIC50 of `CCCCCc1cc(OCOC(=O)OCC)c(CC=C(C)CCC=C(C)C)c(OCOC(=O)OCC)c1`
## Result < 5.30

## Task Answer with reported pIC50 of `CCCc1cc(O)c(C/C=C(\C)CCC=C(C)C)c(OCOC(=O)OCC)c1`
## Result 5.30 to 6.00

## Task Answer with reported pIC50 of `CCCCCc1cc(O)c(CC=C(C)CCC=C(C)C)c(OCOC(=O)C(C)(C)C)c1`
## Result 6.00 to 6.30

## Task Answer with reported pIC50 of `CCCCCc1cc(OCOC(=O)C(C)(C)C)c(CC=C(C)CCC=C(C)C)c(OCOC(=O)C(C)(C)C)c1`
## Result < 5.30

## Task Answer with reported pIC50 of `CCCCCc1cc(OCOC2CCCCC2)c(CC=C(C)CCC=C(C)C)c(OCOC2CCCCC2)c1`
## Result < 5.30

## Task Answer with reported pIC50 of `CCCCCc1cc(O)c(CC=C(C)CCC=C(C)C)c(OCOC2CCCCC2)c1`
## Result < 5.30
